- target_system: Msn1 (UniProt P22148)
- Sequence: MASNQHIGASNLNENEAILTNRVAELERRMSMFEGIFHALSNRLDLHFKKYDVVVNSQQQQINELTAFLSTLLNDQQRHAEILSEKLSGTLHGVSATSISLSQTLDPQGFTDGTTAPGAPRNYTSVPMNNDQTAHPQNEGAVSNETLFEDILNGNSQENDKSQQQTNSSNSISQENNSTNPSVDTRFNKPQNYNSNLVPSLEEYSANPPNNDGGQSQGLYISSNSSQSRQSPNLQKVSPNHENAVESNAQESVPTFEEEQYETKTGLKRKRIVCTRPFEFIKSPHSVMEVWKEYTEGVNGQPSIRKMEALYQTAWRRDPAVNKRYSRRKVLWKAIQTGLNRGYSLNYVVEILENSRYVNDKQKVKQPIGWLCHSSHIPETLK
- assay_remarks: PBM E-score (8-mer binding enrichment) (E-score (-0.5 to 0.5)); higher = stronger / more preferred TF binding
- assay_context: protein concentration: 200 nM; construct: GST-full length
Whole data set: some 33,000 sequences, median “E-score (-0.5 to 0.5)” near -0.013, cut for the highest 2% near 0.3. For the sample, the highest values were picked, then their nearest neighbours and some sequences at random.
quantity: PBM E-score

* ACTGACCT | -0.063
* ACGTGACA | 0.27
* TGCGACAA | 0.338
* CGTTGTCA | -0.023
* AGGGACAC | 0.45
* GGACATTA | 0.489
* CCTTTGGC | -0.132
* ATGTGACA | 0.305
* CCAAATGA | 0.05
* AACGCTAC | -0.137
* AGTCGAGA | 0.0774
* AAAAATAT | 0.208
* ACAAACGT | 0.244
* CCTGATAC | 0.12
* GCAAATAA | 0.0601
* AAAAATAG | 0.189
* ATTTGACG | 0.15
* AGAGGTAG | -0.163
* CCAAATGC | -0.0167
* CTTCCAGA | -0.0473
* CCAAATAG | -0.0591
* GCTGGACA | 0.276
* ACTCGAGT | 0.14
* TACACTGA | 0.0723
* ACAAAGGT | 0.218
* CGTTGGAA | -0.0918
* ATACAGCA | 0.103
* CCAAATAC | -0.058
* ATTCGCTG | 0.00671
* AAACAGGG | 0.09
* ATGGCTGA | -0.133
* AGGGACAG | 0.107
* GTGCGGGA | -0.0606
* AGCGTGTC | 0.0384
* CCTGGACC | 0.0101
* CCTGGACG | -0.182
* AGAGGTTG | -0.182
* AGTTGTGC | -0.273
* ACTGGACT | 0.105
* GTTAGACA | 0.33
* TCTGGAAA | -0.0457
* CCTGAACG | -0.104
* GCTGAACA | 0.00499
* CAGCAAAA | 0.0953
* ACATTAGC | 0.147
* CGCGGTGC | -0.123
* CACTTCCA | -0.0388
* GCCAGTCA | -0.117
* GAGTGGCC | -0.224
* AGAAATAT | 0.181
* ATTAGACA | 0.295
* CTGTGACC | -0.115
* ACTGGACC | -0.137
* AAGAGACA | 0.288
* AGGACGTC | 0.177
* CTTGGCCA | -0.0402
* CGTTGTGC | 0.114
* ACAAATAA | 0.307
* CATAGACC | -0.0541
* CGAACATA | 0.128
* AATACCCA | -0.0704
* TCTGGACA | 0.381
* CCCAAGGG | -0.22
* CGCGGTCC | -0.0855
* AGTTGTCA | 0.295
* CCTGGACA | 0.417
* GCACAAAC | 0.0596
* CGCGTGTC | 0.344
* CGAGTTGA | 0.0114
* GCTTTCCC | 0.00071
* CCAAATGG | 0.169
* CAGAGACA | 0.204
* CTTAGACA | 0.232
* TCATCCGA | 0.183
* CAAGATCC | 0.0979
* ACAAATGG | 0.345
* GACCATGC | 0.0413
* GCACATTA | -0.0601
* CCGTTGCA | 0.0113
* GTTGAGGA | -0.00729
* CGTGGGAA | -0.0248
* ACACATTC | 0.11
* ACAAATGT | 0.446
* ACAAATGA | 0.317
* CATAGACA | 0.35
* CCGTGACA | 0.164
* GTACATTA | 0.278
* GACGTTAC | 0.0854
* ACGAAGCT | -0.0736
* AATGAGAG | -0.161
* GAGAGACA | 0.246

---

- target_system: Msn1 (UniProt P22148)
- Sequence: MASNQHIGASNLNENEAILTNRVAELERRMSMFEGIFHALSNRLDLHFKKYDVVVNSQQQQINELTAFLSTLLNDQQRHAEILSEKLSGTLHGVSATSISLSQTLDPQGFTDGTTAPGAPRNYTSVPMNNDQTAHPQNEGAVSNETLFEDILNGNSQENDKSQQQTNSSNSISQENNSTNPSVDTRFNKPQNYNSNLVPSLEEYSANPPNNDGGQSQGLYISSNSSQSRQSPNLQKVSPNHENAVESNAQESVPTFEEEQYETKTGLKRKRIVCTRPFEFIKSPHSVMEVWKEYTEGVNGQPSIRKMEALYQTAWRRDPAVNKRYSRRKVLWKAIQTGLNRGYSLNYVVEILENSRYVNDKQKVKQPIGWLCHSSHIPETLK
- assay_remarks: PBM E-score (8-mer binding enrichment) (E-score (-0.5 to 0.5)); higher = stronger / more preferred TF binding
- assay_context: protein concentration: 200 nM; construct: GST-full length
Over roughly 33,000 sequences, “E-score (-0.5 to 0.5)” has its median near -0.013; the highest 2% begin near 0.3. What follows is part of a selection rich in the highest values, with near analogues and random picks from the rest.
Quick reference: PBM E-score of the listed items.
quantity: PBM E-score

• ATTGGACG = 0.211
• GACAAAGA = 0.404
• GACAAAGC = 0.393
• ACGTGCTA = -0.167
• CCGGCCGA = 0.106
• CGGACGGA = -0.00604
• GTTGGACA = 0.437
• ACGCGCGC = 0.196
• CGGACAAG = 0.418
• GTTGGATA = 0.0207
• CACAAGGA = 0.0619
• AACAAAGC = -0.00117
• ACACTGTC = 0.165
• CTCTTAGC = -0.0929
• GACAAGGA = 0.311
• CTTGGACC = -0.163
• ATTGGACA = 0.445
• ATTGGACC = -0.101
• CGGACAAA = 0.484
• AAACGTCC = 0.317
• ATTCGAAA = 0.0661
• AAACGTCT = 0.24

---

- target_system: Msn1 (UniProt P22148)
- Sequence: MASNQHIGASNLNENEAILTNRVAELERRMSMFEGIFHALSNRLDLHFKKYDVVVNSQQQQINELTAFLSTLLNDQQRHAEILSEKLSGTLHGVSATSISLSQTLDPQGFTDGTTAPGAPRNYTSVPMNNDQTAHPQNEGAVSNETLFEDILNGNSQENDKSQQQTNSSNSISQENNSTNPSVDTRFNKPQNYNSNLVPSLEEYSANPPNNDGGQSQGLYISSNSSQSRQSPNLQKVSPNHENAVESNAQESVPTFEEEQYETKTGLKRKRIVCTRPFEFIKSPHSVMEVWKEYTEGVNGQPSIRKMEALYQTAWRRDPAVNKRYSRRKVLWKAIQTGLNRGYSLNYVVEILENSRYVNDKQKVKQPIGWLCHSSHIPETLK
- assay_remarks: PBM E-score (8-mer binding enrichment) (E-score (-0.5 to 0.5)); higher = stronger / more preferred TF binding
- assay_context: protein concentration: 200 nM; construct: GST-full length
In all, about 33,000 sequences were measured (“E-score (-0.5 to 0.5)”: median about -0.013, highest 2% from about 0.3 on). The sample as a whole holds a higher share of the highest values than the screen did.
// label = met if PBM E-score is not less than 0.08, otherwise not met

- ATATATTC: met
- GAGAAACA: not met
- CGACAAGA: met
- AAACCGCT: not met
- ACATATCG: met
- AATGCCCC: not met
- ACAGTCGA: not met
- AGACAACA: met
- AGACAACC: met
- AGACAATC: met
- GGACAACA: met
